Source: BindingDB's records for doi:10.1016/j.bmcl.2005.05.116

Each entry below carries its reported IC50.
- TARGET OF ASSAY: Caspase-3 (Homo sapiens, UniProt P42574)
- Sequence (P42574 29-175 limits assumed): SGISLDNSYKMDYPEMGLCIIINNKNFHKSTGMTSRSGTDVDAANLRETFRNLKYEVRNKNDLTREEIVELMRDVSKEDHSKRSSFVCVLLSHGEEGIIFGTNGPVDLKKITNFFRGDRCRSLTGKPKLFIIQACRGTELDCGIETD
- Sequence (P42574 176-277 limits assumed): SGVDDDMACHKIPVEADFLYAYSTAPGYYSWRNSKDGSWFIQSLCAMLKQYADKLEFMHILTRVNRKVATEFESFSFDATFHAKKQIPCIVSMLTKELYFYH
- EXPERIMENT SUMMARY: Caspase Inhibition Assay
ASSAY ENDPOINT: IC50 (nM)

                                   molecule                           target_of_assay  measure_unit  val
0  COc1ccc(I)cc1C(O)C(=O)N[C@H](C(=O)N[C@@H](CC(=O)O)C(=O)CSCc1ccccc1)C(C)C (stereo not given in full)  Caspase-3 (Homo sapiens, UniProt P42574)            nM   16
1  COc1ccc(Br)cc1C(O)C(=O)N[C@H](C(=O)N[C@@H](CC(=O)O)C(=O)CSCc1ccccc1)C(C)C (stereo not given in full)  Caspase-3 (Homo sapiens, UniProt P42574)            nM    5
2  COc1ccc(C(C)=O)cc1C(O)C(=O)N[C@H](C(=O)N[C@@H](CC(=O)O)C(=O)CSCc1ccccc1)C(C)C (stereo not given in full)  Caspase-3 (Homo sapiens, UniProt P42574)            nM   16
3  COc1ccc(-c2nc(C)no2)cc1C(O)C(=O)N[C@H](C(=O)N[C@@H](CC(=O)O)C(=O)CSCc1ccccc1)C(C)C (stereo not given in full)  Caspase-3 (Homo sapiens, UniProt P42574)            nM   12
4  COc1ccc(OC)c(C(O)C(=O)N[C@H](C(=O)N[C@@H](CC(=O)O)C(=O)CSCc2ccccc2)C(C)C)c1 (stereo not given in full)  Caspase-3 (Homo sapiens, UniProt P42574)            nM   29
